Hey, just so you know, these numbers are from patent US11667602B2.

# experiment: Human Plasma Protein Binding (Test B)
# Type: in vitro ADME
# measurement_parameters: fraction unbound (fu)
measurement_kind: Test B Human Plasma Protein Binding (% free)

Solved entries:
{"compound": "COc1cc(F)c(-c2ccc(C(=O)O)cc2)cc1C(=O)N[C@H]1[C@@H](C(=O)Nc2ccc(F)c(S(=O)(=O)C(F)(F)F)c2)[C@@H]2C=C[C@H]1C2 (racemic) [Example 296]", "recorded_value": "<0.32 % free"}
{"compound": "COc1cc(F)c(O[C@H]2CC[C@@H](C(=O)O)CC2)cc1C(=O)N[C@@H]1[C@H]2CC[C@H](C2)[C@@H]1C(=O)Nc1cc(F)cc(C(F)(F)F)c1 [Example 29]", "recorded_value": "0.72 % free"}

# evaluate next
Request: I am curious: what Test B Human Plasma Protein Binding (% free) value has been reported for COc1cc(F)c(O[C@H]2CC[C@@](C)(C(=O)O)CC2)cc1C(=O)N[C@@H]1[C@H]2CC[C@H](C2)[C@@H]1C(=O)Nc1ccc(F)c(S(F)(F)(F)(F)F)c1 [Example 353] ?
Result: <0.23 % free

----------
# experiment: Human Liver Microsomal Stability (Test C)
# Format: in vitro ADME
# measurement_parameters: human, liver microsomes
Can you tell me microsomal CLint for the items I'm about to list?
One number for each entry, in µL/min/mg.

{"compound": "COc1cc(F)c(-c2cnn(CCC(=O)O)c2)cc1C(=O)N[C@@H]1[C@H]2CC[C@H](C2)[C@@H]1C(=O)Nc1cccc(S(=O)(=O)C(F)(F)F)c1 [Example 255]", "readout_unit": "µL/min/mg", "microsomal CLint": 26}
{"compound": "COc1cc(F)c(O[C@H]2CC[C@@H](C(=O)O)CC2)cc1C(=O)N[C@@H]1[C@H]2CC[C@H](C2)[C@@H]1C(=O)NC1CCC1 [Example 177]", "readout_unit": "µL/min/mg", "microsomal CLint": 3.5}

Provide reported microsomal CLint for each item, in the same order as listed.
1. COc1cc(C#N)c(O[C@H]2CC[C@@H](C(=O)O)CC2)cc1C(=O)N[C@@H]1[C@H]2CC[C@H](C2)[C@@H]1C(=O)Nc1cccc(S(=O)(=O)C(F)(F)F)c1 [Example 467]
2. COc1cc(F)c(O[C@H]2CC[C@@H](C(=O)O)CC2)cc1C(=O)N[C@@H]1CCC[C@@H]1C(=O)Nc1cccc(S(=O)(=O)C(F)(F)F)c1 [Example 490]

Result:
37
30

----------
# experimental_system: human RXFP1 (Homo sapiens, UniProt Q9HBX9)
# Sequence (Q9HBX9 1-757): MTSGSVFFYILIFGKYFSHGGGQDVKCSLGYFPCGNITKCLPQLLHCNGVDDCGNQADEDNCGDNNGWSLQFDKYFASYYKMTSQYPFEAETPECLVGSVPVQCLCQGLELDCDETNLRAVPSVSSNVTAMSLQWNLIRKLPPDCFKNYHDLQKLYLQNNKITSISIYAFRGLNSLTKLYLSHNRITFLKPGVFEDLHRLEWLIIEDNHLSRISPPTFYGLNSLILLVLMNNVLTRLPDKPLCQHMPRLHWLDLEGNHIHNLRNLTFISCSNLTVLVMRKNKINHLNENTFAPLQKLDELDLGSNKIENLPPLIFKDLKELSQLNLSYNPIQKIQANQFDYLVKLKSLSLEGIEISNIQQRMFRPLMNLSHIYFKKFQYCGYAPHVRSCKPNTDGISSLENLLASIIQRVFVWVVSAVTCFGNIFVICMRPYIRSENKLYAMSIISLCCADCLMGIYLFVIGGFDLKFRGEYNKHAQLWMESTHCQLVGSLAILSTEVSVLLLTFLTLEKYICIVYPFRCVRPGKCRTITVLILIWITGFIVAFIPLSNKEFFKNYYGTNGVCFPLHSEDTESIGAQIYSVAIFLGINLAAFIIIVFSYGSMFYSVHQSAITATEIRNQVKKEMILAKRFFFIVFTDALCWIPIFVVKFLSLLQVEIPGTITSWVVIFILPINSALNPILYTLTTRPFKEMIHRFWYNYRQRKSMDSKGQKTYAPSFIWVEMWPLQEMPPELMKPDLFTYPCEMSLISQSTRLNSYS
# experiment: RXFP1 Hu cAMP (Test A)
# Assay type: cell-based
# Set-up: expressed in transfected cells; host or cells: Jump-In T-REx CHO-K1 cells (ThermoFisher), induced with 10 ng/ml doxycycline for 24 h
# measurement_parameters: RXFP1 Hu cAMP; read-out: Test A EC50
measurement_kind: pEC50
One number for each entry, as −log10 of the molar value.

Solved entries:
{"molecule": "COc1cc(F)c(O[C@H]2CC[C@@](C)(C(=O)O)CC2)cc1C(=O)N[C@@H]1[C@H]2CC[C@H](C2)[C@@H]1C(=O)NCC1(C(F)(F)F)CCC1", "pEC50": 7.12}
{"molecule": "COc1cc(C#N)c(O[C@H]2CC[C@@](C)(C(=O)O)CC2)cc1C(=O)N[C@@H]1[C@H]2CC[C@H](C2)[C@@H]1C(=O)NC12CC(C1)C2", "pEC50": 7.13}
{"molecule": "COc1cc(F)c(C2CCC(C(=O)O)CC2)cc1C(=O)NC1C2CCC(C2)C1C(=O)Nc1cccc(S(=O)(=O)C(F)(F)F)c1 (stereo not shown)", "pEC50": 6.07}
{"molecule": "COc1cc(F)c(-c2ccc(CCC(=O)O)nc2)cc1C(=O)N[C@@H]1[C@H]2CC[C@H](C2)[C@@H]1C(=O)Nc1cccc(S(=O)(=O)C(F)(F)F)c1", "pEC50": 6.92}
{"molecule": "COc1cc(F)c(-c2ccc(CCC(N)(CO)CO)c(F)c2)cc1C(=O)N[C@@H]1[C@H]2CC[C@H](C2)[C@@H]1C(=O)Nc1cccc(S(=O)(=O)C(F)(F)F)c1", "pEC50": 6.96}
{"molecule": "COc1cc(F)c(O[C@H]2CC[C@@H](C(=O)O)CC2)cc1C(=O)N[C@@H]1[C@H]2CC[C@H](C2)[C@@H]1C(=O)Nc1cccc(OC(F)(F)F)c1", "pEC50": 7.32}
{"molecule": "COc1cc(C#N)c(O[C@H]2CC[C@@](C)(C(=O)O)CC2)cc1C(=O)N[C@@H]1[C@H]2CC[C@H](C2)[C@@H]1C(=O)N[C@H]1C[C@@H](C)C1", "pEC50": 6.66}
{"molecule": "CCCC1(CNC(=O)[C@H]2[C@@H]3CC[C@@H](C3)[C@H]2NC(=O)c2cc(O[C@H]3CC[C@@](C)(C(=O)O)CC3)c(C#N)cc2OC)CCC1", "pEC50": 7.77}

Provide reported pEC50 for each item, in the same order as listed.
1. COc1cc(C#N)c(O[C@H]2CC[C@@](C)(C(=O)O)CC2)cc1C(=O)Nc1cc(C)ccc1C(=O)N[C@H]1CC[C@H](C)CC1
2. CCc1cc(OC)c(C(=O)N[C@@H]2[C@H]3CC[C@H](C3)[C@@H]2C(=O)NC23CC(F)(C2)C3)cc1O[C@H]1CC[C@@](C)(C(=O)O)CC1
3. COc1cc(F)c(O[C@H]2CC[C@@](C)(C(=O)O)CC2)cc1C(=O)N[C@@H]1[C@H]2OCO[C@H]2C[C@@H]1C(=O)Nc1cccc(S(=O)(=O)C(F)(F)F)c1 (racemic)
4. COc1cc(F)c(O[C@H]2CC[C@@H](C(=O)O)CC2)cc1C(=O)N[C@@H]1[C@H]2CC[C@H](C2)[C@@H]1C(=O)Nc1ccccc1

Result:
6.57
6.92
7.51
5.14
